# Test system: ALPK1-dependent NFκB reporter gene activation in HEK293 cells stably expressing an NF-kB reporter (G9 cells)
# ASSAY: NFκB gene reporter alkaline phosphatase assay
# Assay type: cell-based
# DETAILS: Homo sapiens, HEK293; read-out: NFkB assay IC50
Lab note: compare IC50 with 1000 nM, writing 1 (yes) if less and 0 (no) if equal or more.

Example entries begin here.
COMPOUND: C#C[C@](C)(c1ccc(Cl)cc1)c1csc(NC(=O)NCCO)n1
ANSWER_LABEL: 0 (no)
--
COMPOUND: COc1ccc(C(C)(C)c2csc(NC(=O)NCc3cnc(N4CCC(N)C4)nc3)n2)cc1 (stereo not drawn)
ANSWER_LABEL: 1 (yes)

API: the following record is the query input.
Just wondering, is IC50 of C#C[C@@](C)(c1ccc(Cl)cc1)c1csc(NC(=O)NCCC(C)(C)O)n1 below 1000 nM?
1 (yes)
